Biological target: furin, P09958;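 further: purified furin at 1:10 enzyme:substrate in 50 mM HEPES pH 7.5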
Sequence (P09958 whole entry): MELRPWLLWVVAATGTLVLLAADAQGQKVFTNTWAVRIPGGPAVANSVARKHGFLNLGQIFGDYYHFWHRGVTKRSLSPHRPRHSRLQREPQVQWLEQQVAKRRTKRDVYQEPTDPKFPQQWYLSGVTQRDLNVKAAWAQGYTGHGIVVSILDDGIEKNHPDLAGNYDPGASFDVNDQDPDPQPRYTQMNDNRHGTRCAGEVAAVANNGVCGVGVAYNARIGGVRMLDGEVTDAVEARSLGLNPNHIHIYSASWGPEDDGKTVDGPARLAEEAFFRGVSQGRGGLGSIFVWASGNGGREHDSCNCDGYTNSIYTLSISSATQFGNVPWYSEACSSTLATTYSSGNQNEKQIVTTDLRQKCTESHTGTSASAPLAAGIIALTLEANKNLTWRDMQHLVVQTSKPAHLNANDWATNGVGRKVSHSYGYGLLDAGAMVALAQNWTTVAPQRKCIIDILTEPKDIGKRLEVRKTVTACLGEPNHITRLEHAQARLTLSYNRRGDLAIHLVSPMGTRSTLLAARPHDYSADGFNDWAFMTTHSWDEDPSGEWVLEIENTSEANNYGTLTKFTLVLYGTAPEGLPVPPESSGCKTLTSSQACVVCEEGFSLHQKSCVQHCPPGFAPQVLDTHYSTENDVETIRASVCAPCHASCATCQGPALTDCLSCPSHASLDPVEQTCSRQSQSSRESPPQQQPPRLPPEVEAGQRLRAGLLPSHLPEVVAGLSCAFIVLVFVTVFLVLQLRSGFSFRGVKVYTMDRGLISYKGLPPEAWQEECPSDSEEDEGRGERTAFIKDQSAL
Assay: furin cleavage Z-score vs untreated control; higher = more cleavage, active = 3.5 or more, inactive = 1 or less, 8 variable residues between constant flanks
Conditions: 7.5 min
The list shows a part of the results. No count for the full screen is at hand.
readout_kind: furin cleavage Z-score

Below, each entry is followed by its recorded furin cleavage Z-score result.
// query Would you kindly share the measured furin cleavage Z-score for CAARAAWETAAGNASASA [HC1567] ?
// result 1.07

// query Also CASPLRQNRSAGNASASA [FS-299] , if possible.
// result 0.752 (inactive)

// query Request: CAARAQAPPPAGNASASA [HC958]
// result -1.14 (inactive)

// query Now give it for CAARARHRKNAGNASASA [FS-1512] too.
// result 3.46

// query # repeat for CARKKKHRKNAGNASASA [FS-2265]
// result 0.00727 (inactive)

For every listed record, write down its furin cleavage Z-score.
1. CAEVPCHRDSAGNASASA [HC2391]
2. CAGVPPLRAWAGNASASA [HC1617]

// result
1. 0.533 (inactive)
2. 0.794 (inactive)
